Assay: M. tuberculosis growth inhibition, HTS (AID 449762);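 also: bacterial growth assessed after seven days of incubation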
Settings: M. tuberculosis H37Rv growth inhibition, 7H9 media; at 25 µM; stronger effect = higher value
Screen size: about 330,000 compounds; about 1,900 (0.58%) were called active. Inconclusive results (about 4%) are left out. These entries were drawn from the full list. Measured potencies and affinities stand elsewhere.
Task for the reader: assign each of the following molecules its reported inhibition.
Quick note: give the figure in %, leave out the unit.

-- ask Recorded inhibition of `Cc1ccc(N(CCC#N)C(=O)COC(=O)c2nc3nc(C)cc(C)n3n2)cc1` , please.
-- reply -2.21

-- ask Recorded inhibition of `Cc1cc(N2CCN(Cc3nc(-c4ccc(F)cc4)oc3C)CC2)cc(C)n1` , please.
-- reply 9.44

-- ask Recorded inhibition of Cc1ccc(CN2CCSc3ccc(C(=O)NCC4CCCO4)cc32)cc1 (stereo not given) , please.
-- reply -1.08

-- ask Recorded inhibition of `O=C(NCC1CC1)c1ccc(Nc2nc3ccc(Br)cc3[nH]2)cc1` , please.
-- reply -0.43

-- ask Recorded inhibition of `Cc1cc(N2CCN(Cc3nc(-c4ccc(Cl)cc4)oc3C)CC2)cc(C)n1` , please.
-- reply 15.9
